Read-out: Monokine induced gamma interferon (MIG), CXCL9 (gene 4283)
Experiment: BSK_hDFCGF_MIG: BioMAP Diversity Plus: hDFCGF Assay for Monokine induced gamma interferon (MIG) Biomarker Activity (AID 2283063)
Details: primary human foreskin fibroblasts; actives raise or lower the signal
Active and inactive are the calls of the source. Rule for the calls: active = hit-call score of the fitted dose curve at least 0.9, where 1 is the maximum; inactive = score below 0.9.
Assign a class; possible classes are active, inactive

Solved cases below.
C#C[C@]1(O)CC[C@H]2[C@@H]3CCC4=Cc5oncc5C[C@]4(C)[C@H]3CC[C@@]21C | inactive
CCn1c2ccccc2c2cc(N)ccc21 | inactive
CCc1c(C)cc(N)c(CC)c1N | inactive

Tell me the assay call for "O=C1OC2(c3cc(Br)c(O)c(Br)c3Oc3c2cc(Br)c(O)c3Br)c2c(Cl)c(Cl)c(Cl)c(Cl)c21" please.
active

Tell me the assay call for "CNC[C@H](O)c1cccc(O)c1" please.
inactive

Tell me the assay call for CC1COc2ccccc2N1C(=O)C(Cl)Cl (stereo not drawn) please.
inactive

Tell me the assay call for CCCCCCCCCCCCCCCCCC(=O)OCC(CC)CCCC (stereo not drawn) please.
inactive

Tell me the assay call for "COc1cc(C=O)ccc1OC(=O)C(C)C" please.
inactive

Tell me the assay call for "O=C(O)c1ccc([N+](=O)[O-])cc1" please.
inactive

Tell me the assay call for "CC(=O)Nc1ccccc1O" please.
inactive
